EC50 by entry:
- Test system: Human alphaherpesvirus 1
- Type: functional, organism-based
- Particulars: Human alphaherpesvirus 1, KOS, HEL
API: value field is a number in µg/mL; no unit string.

Worked cases, answers included:
{"Item smiles": "Nc1cnn(C[C@@H](CO)OCP(=O)(O)O)c(=O)n1", "Display unit": "µg/mL", "EC50": 8.84}
{"Item smiles": "O=c1[nH]c(=O)n([C@H]2C[C@H](O)[C@@H](CO)O2)cc1/C=C/Br", "Display unit": "µg/mL", "EC50": 0.0025}
{"Item smiles": "Nc1ncn(C[C@H](CO)OCP(=O)(O)O)c(=O)n1", "Display unit": "µg/mL", "EC50": 11.8}

*Q* I am curious: what EC50 value has been reported for `Nc1ccn(C[C@@H](CO)OCP(=O)(O)O)c(=O)n1.O.O` ?
*A* 0.09

*Q* I am curious: what EC50 value has been reported for `Nc1nc2c(ncn2COCCO)c(=O)[nH]1` ?
*A* 0.015

*Q* I am curious: what EC50 value has been reported for `NC(=NC(=O)NC[C@@H](CO)OCP(=O)(O)O)NC=O` ?
*A* 1.35

*Q* I am curious: what EC50 value has been reported for `Nc1ncn(C[C@@H](CO)OCP(=O)(O)O)c(=O)n1` ?
*A* 0.077

*Q* I am curious: what EC50 value has been reported for `Nc1ncn(CCOCP(=O)(O)O)c(=O)n1` ?
*A* 9.9

---

MCC by entry:
- Protocol summary: Cytotoxicity against Vero cells assessed as alteration in cell morphology
- Assay type: cell-based
- Particulars: chlorocebus sabaeus

Worked cases, answers included:
{"Compound": "Nc1ncn(C[C@@H](CO)OCP(=O)(O)O)c(=O)n1", "MCC": "400 µg/mL"}
{"Compound": "NC(=O)c1ncn([C@@H]2O[C@H](CO)[C@@H](O)[C@H]2O)n1 [RIBAVIRIN]", "MCC": "> 400 µg/mL"}
{"Compound": "Nc1ncn(C[C@H](O)CO)c(=O)n1", "MCC": "> 100 µg/mL"}

*Q* I am curious: what MCC value has been reported for `Nc1ncn(CCOCP(=O)(O)O)c(=O)n1` ?
*A* 400 µg/mL

*Q* I am curious: what MCC value has been reported for `NC(=NC(=O)NC[C@@H](CO)OCP(=O)(O)O)NC=O` ?
*A* > 100 µg/mL

*Q* I am curious: what MCC value has been reported for `C[C@H](Cn1cnc(N)nc1=O)OCP(=O)(O)O` ?
*A* > 100 µg/mL

*Q* I am curious: what MCC value has been reported for `NC(N)=NC(=O)NC[C@@H](CO)OCP(=O)(O)O` ?
*A* > 100 µg/mL

*Q* I am curious: what MCC value has been reported for O=c1[nH]c(=O)n([C@H]2C[C@H](O)[C@@H](CO)O2)cc1/C=C/Br [BRIVUDINE] ?
*A* > 400 µg/mL

*Q* I am curious: what MCC value has been reported for `Nc1cnn(C[C@@H](CO)OCP(=O)(O)O)c(=O)n1` ?
*A* 400 µg/mL

---

- Tested on: Coxsackievirus B4
- Assay type: functional, organism-based
- Particulars: Enterovirus B, Vero
Measured endpoint: EC50

Worked cases, answers included:
{"Molecule": "Nc1ncn(C[C@H](CO)OCP(=O)(O)O)c(=O)n1", "EC50": "> 200 µg/mL"}
{"Molecule": "NC(N)=NC(=O)NC[C@@H](CO)OCP(=O)(O)O", "EC50": "> 100 µg/mL"}
{"Molecule": "NC(=O)c1ncn([C@@H]2O[C@H](CO)[C@@H](O)[C@H]2O)n1", "EC50": "240 µg/mL"}
{"Molecule": "Nc1ncn(C[C@@H](CO)OCP(=O)(O)O)c(=O)n1", "EC50": "> 80 µg/mL"}
{"Molecule": "C[C@H](Cn1cnc(N)nc1=O)OCP(=O)(O)O", "EC50": "> 100 µg/mL"}

*Q* Which EC50 is reported with Coxsackievirus B4 for this entry: Nc1ncnc2c1ncn2C[C@H](O)CO [(S)-DHPA] ?
*A* 240 µg/mL

*Q* Which EC50 is reported with Coxsackievirus B4 for this entry: `Nc1ncn(CCOCP(=O)(O)O)c(=O)n1` ?
*A* > 80 µg/mL

*Q* Which EC50 is reported with Coxsackievirus B4 for this entry: `NC(=NC(=O)NC[C@@H](CO)OCP(=O)(O)O)NC=O` ?
*A* > 100 µg/mL

*Q* Which EC50 is reported with Coxsackievirus B4 for this entry: `O=c1[nH]c(=O)n([C@H]2C[C@H](O)[C@@H](CO)O2)cc1/C=C/Br` ?
*A* > 400 µg/mL

*Q* Which EC50 is reported with Coxsackievirus B4 for this entry: `Nc1ncn(C[C@H](O)CO)c(=O)n1` ?
*A* > 100 µg/mL

---

- Protocol summary: Cytotoxicity against C3H cells assessed as alteration in cell morphology
- Assay type: cell-based
- Particulars: mouse
Measured endpoint: MCC

{"Compound": "Nc1ncn(C[C@H](CO)OCP(=O)(O)O)c(=O)n1", "MCC": "> 100 µg/mL"}
{"Compound": "NC(N)=NC(=O)NC[C@@H](CO)OCP(=O)(O)O", "MCC": "> 100 µg/mL"}

As a next step, examine the compound that follows.
*Q* I am curious: what MCC value has been reported for Nc1ncnc2c1ncn2C[C@H](O)CO [(S)-DHPA] ?
*A* > 100 µg/mL

---

- Test system: Human alphaherpesvirus 1
- Assay type: functional, organism-based
- Particulars: Human alphaherpesvirus 1, KOS, HEL
EC50 by entry:

{"Item smiles": "NC(N)=NC(=O)NC[C@@H](CO)OCP(=O)(O)O", "EC50": "> 50 µg/mL"}
{"Item smiles": "C[C@H](Cn1cnc(N)nc1=O)OCP(=O)(O)O", "EC50": "> 100 µg/mL"}

As a next step, examine the compound that follows.
*Q* I am curious: what EC50 value has been reported for `Nc1ncn(C[C@H](O)CO)c(=O)n1` ?
*A* > 100 µg/mL
